# Tested on: OVCAR-4
# experimental_protocol: NCI tumour cell line growth inhibition, 48 h
Calls of active or inactive are those of the source. Rule as the data show it: active = GI50 up to about 1.1 µM and inactive = higher.
Property: GI50; scope: individual molecules
value_type: GI50

> print(dat)
                                    molecule          measurement
 1          Oc1nnc(-c2ccc(F)cc2)cc1-c1ccccc1     38 µM (inactive)
 2  O=C(NCCCCCCCCCCCCNC(=O)c1cccc2ccccc12)c1cccc2ccccc12   6.24 µM (inactive)
 3   O=C(CSc1ncccn1)N/N=C/c1ccccc1OCc1ccccc1   22.8 µM (inactive)
 4     CC1=NN=C(C)C1/N=N/c1ccc2[nH]c(C)nc2c1   58.1 µM (inactive)
 5      Cc1cc(C)c2c(-c3ccccc3)cc(=O)[nH]c2c1  > 100 µM (inactive)
 6  CN(C)c1ccc([S+]([O-])Nc2ccccc2)cc1 (stereo not drawn)     45 µM (inactive)
 7                      CN1CC=C(c2cccn2C)CC1  > 100 µM (inactive)
 8      CC1=C(C#N)C(N)=C2C(C)=C(C#N)C(N)=C12  > 100 µM (inactive)
 9  COc1cc(OCc2nc3cc(C(F)(F)F)ccc3nc2-c2ccccc2)cc(OC)c1OC   95.3 µM (inactive)
10  CCCCOP(C)(=O)C(NC(=O)OCC)(C(F)(F)F)C(F)(F)F (stereo not drawn)  > 100 µM (inactive)
11  CC(C)=CCCC1(C)C=Cc2c(ccc3c2[nH]c2cc(O)c(C)cc23)O1 (stereo not drawn)   7.94 µM (inactive)
12  COc1cc(OCc2ccc3nc(-c4ccccc4)c(Cl)nc3c2)cc(OC)c1OC  > 100 µM (inactive)
13   CCOP(=O)(OCC)/C(C#N)=C/c1c[nH]c2ccccc12  > 100 µM (inactive)
14  COC(=O)C1=COC2OC3/C(=C\c4ccc(O)c(OC)c4)C(=O)OC34C=CC1C24 (stereo not drawn)   17.6 µM (inactive)
15  CC(C)(C)OC(=O)[N+](=N)C(=O)C1CCC(=O)N1C(=O)OCc1ccccc1 (stereo not drawn)  > 100 µM (inactive)
16                 CCNc1ccc2c(c1)Cc1ccccc1-2   75.3 µM (inactive)
17  COc1cc(C2c3cc4c(cc3[C@@H](Nc3cccc(C(C)=O)c3)C3COC(=O)[C@H]23)OCO4)cc(OC)c1O (stereo partly drawn)   6.17 µM (inactive)
18             CC(C)CC(=O)NS(=O)(=O)c1ccccc1  > 100 µM (inactive)
19  CC1=NN(c2nc(N)nc(COCc3nc(N)nc(N4N=C(C)CC4(C)C)n3)n2)C(C)(C)C1  > 100 µM (inactive)
20                       O=P(O)(O)OP(=O)(O)O  > 100 µM (inactive)
21  CCCCCC(CO)C(O)(C(F)(F)F)C(F)(F)F (stereo not drawn)   > 10 µM (inactive)
22  COC(=O)C1=C(C)NC2(O)C=CC(=O)C3C(=O)N(c4ccccc4)C(=O)C132 (stereo not drawn)  > 100 µM (inactive)
23  O=C1Cc2c(-c3ccccc3)cc(-c3cccc(Cl)c3)nc2-c2ccccc2N1    1.5 µM (inactive)
24  Clc1nc(Nc2nc3ccccc3[nH]2)nc(Cl)c1Cc1ccccc1   36.1 µM (inactive)
25  Clc1ccc(OCc2nnc(CCCCCCCCc3nnc(COc4ccc(Cl)cc4Cl)n3Nc3ccccc3)n2Nc2ccccc2)c(Cl)c1   8.51 µM (inactive)
26        COc1ccccc1NC(=O)NS(=O)(=O)c1ccccc1  > 100 µM (inactive)
27  COC(=O)C(NC(=O)CSc1nnc(COc2ccc(Cl)cc2)n1-c1ccccc1)C(C)C (stereo not drawn)   25.6 µM (inactive)
28  O=C(N/N=C/C=C/c1ccc([N+](=O)[O-])o1)c1ccc(Br)s1   18.9 µM (inactive)
29     CNS(=O)(=O)NN(C)S(=O)(=O)c1ccc(OC)cc1  > 100 µM (inactive)
30  O=C(CN1C(=O)c2ccccc2C1=O)NC1(C(=O)O)CCCC1  > 100 µM (inactive)
31  Cc1ccc2oc(=O)c(C(=O)Nc3nc(C45CC6CC(CC(C6)C4)C5)cs3)cc2c1  > 100 µM (inactive)
32  Cc1ccc2c(c1)-c1c(C#N)c(N)nc(-c3ccc(Cl)cc3)c1CCS2(=O)=O   > 83 µM (inactive)
33  O=C(Nc1nncs1)NS(=O)(=O)n1c(=S)sc2ccccc21  > 100 µM (inactive)
34  CSc1nc2c(ncn2C2OCC(O)C(O)C2O)c(=O)n1C (stereo not drawn)  > 100 µM (inactive)
35  CC1C[C@]2(C[C@@H](C)C(=O)O2)OC2CC3(C)C4CCC5C(C)(C)OC(=O)CC[C@@]56C[C@@]46CC[C@]3(C)C12 (stereo partly drawn)  > 100 µM (inactive)
36  O=C1c2c(Br)sc(Br)c2[C@@H](NC(=O)C(F)(F)F)C1Br (stereo partly drawn)   2.31 µM (inactive)
37  COC(=O)C1=C(O)c2cc(OC)c(OC)cc2C(c2ccc(OC)c(OC)c2)C1 (stereo not drawn)  > 100 µM (inactive)
38  Cc1cc(S(=O)(=O)O)ccc1/N=N/c1c(O)ccc2ccccc12  > 100 µM (inactive)
39  O=C1N(c2ccccc2)C(=O)C2(SC=NN2Cc2ccccc2)N1c1ccccc1 (stereo not drawn)  > 100 µM (inactive)
40  C=C1c2[nH]c3c([N+](=O)[O-])c(OC)ccc3c2CCN1C(C)=O  > 100 µM (inactive)
41  O=C(NC(c1ccccc1)C(O)C(=O)OCc1ccc2c(c1)C(=O)c1ccccc1C2=O)c1ccccc1 (stereo not drawn)    2.2 µM (inactive)
42       O=C(/C=C/c1ccc(O)cc1)c1cc(O)cc(O)c1   20.6 µM (inactive)
43      O=C(O)c1ccc(Nc2ccnc3cc(Cl)ccc23)cc1O  > 100 µM (inactive)
